Test system: Plasmodium falciparum
Experiment: In vitro efficacy for chloroquine-sensitive Plasmodium falciparum D6
Settings: read-out: ED50 (the source's name)
observed_property: EC50 (nM)
Kindly provide the numeric value in nM only, without the unit symbol.

Consider the compound shown here: CCN(CC)CCCC(C)Nc1ccnc2cc(Cl)ccc12 (stereo unspecified) What is its recorded EC50?
54

---

Biological target: Glutathione reductase, mitochondrial (Homo sapiens)
Experiment: Competitive inhibition of human Glutathione Reductase
For each of the compounds below, state its Ki.c.
Kindly provide the numeric value in nM only, without the unit symbol.

Consider the compound shown here: CC1=C(CCCCCC(=O)O)C(=O)c2c(O)cccc2C1=O What is its recorded Ki.c?
750

Ok, now CC1=C(CCCCCC(=O)O)C(=O)c2ccccc2C1=O
1900

Ok, now CC1=C(CCCCC(=O)O)C(=O)c2c(O)cccc2C1=O
1100
